Exercise: state measured normalized growth for each of the compounds provided.
EXPERIMENT: chemical genetic growth profiling, strain panel (AID 1159580);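 further: tested at 20 µM; growth read once vehicle control cultures reached saturation at 30 °C; 1 = growth at the plate median or of vehicle wells; lower values mean less growth of the strain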
REPORTED_CONDITIONS: S. cerevisiae deletion strains, growth OD, locus YBR229C, strain ROT2, active compounds read low
The campaign covered roughly 5,500 compounds. About 2,000 (36%) were called active. Roughly 18% stayed inconclusive and do not appear here. Some of the results follow.
Output spec: single numeric token, no unit.

[Q] Value lookup for normalized growth; key = C[C@H]1[C@H](C)CC[C@]2(C(=O)O)CC[C@]3(C)C(=CCC4[C@@]5(C)C[C@@H](O)[C@H](O)[C@@](C)(CO)C5[C@H](O)C[C@]43C)[C@H]12 (stereo not given in full)
[A] 0.987

[Q] Record request: normalized growth value, item `COc1c(O)cc2c(c1O)[C@H]1O[C@H](CO)[C@@H](O)[C@H](O)[C@@H]1OC2=O`
[A] 0.993

[Q] normalized growth lookup needed for `CCOC(=O)c1nnc2cc(C)nn2c1C` , thanks.
[A] 1.01

[Q] Quick one: normalized growth for `CCSc1ncccc1C(=O)N[C@@H](CCSC)C(=O)OC` ?
[A] 0.996

[Q] Reported normalized growth for `CC(C)(C)c1ccc(Oc2ncccc2NC(=O)c2ccccc2C(F)(F)F)cc1` : what is it?
[A] 1.01

* * *

EXPERIMENT: chemical genetic growth profiling, strain panel (AID 1159580);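 further: tested at 20 µM; growth read once vehicle control cultures reached saturation at 30 °C; 1 = growth at the plate median or of vehicle wells; lower values mean less growth of the strain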
REPORTED_CONDITIONS: S. cerevisiae deletion strains, growth OD, locus YJR043C, strain POL32
About 2,000 (36%) of roughly 5,500 compounds were called active. Inconclusive results (about 18%) are left out. Cut-off read from the data, not from the text of the source: active = normalized growth mostly below about 0.91 (no sharp cut-off); inconclusive = no clear call, values can overlap the other calls; inactive = mostly above about 0.92. The list shows a part of the results.
Respond with a class label; see 1.0 = active, 0.0 = inactive

[Q] Record lookup: outcome of this test for `CCCCCCCCCCCCSc1nnc(N)s1` ?
[A] 0.0

[Q] Hi, do you know how C[C@@H]1CC[C@@]23CCC4(C)[C@@](C=CC5[C@@]6(C)CCC(=O)C(C)(C)C6CC[C@]54C)(OC2=O)C3[C@H]1C (stereo not given in full) came out in this test?
[A] 0.0

[Q] So what was the verdict on `CC[C@@]1(O)C(=O)OCc2c1cc1n(c2=O)Cc2cc3cc(O)ccc3nc2-1` in this test?
[A] 0.0

[Q] Dear all, I need the recorded test outcome for `O=[N+]([O-])c1cnc2ccccn12` , thank you.
[A] 0.0

[Q] Test call, this molecule: `COC(=O)[C@H]1[C@H]2C[C@H]3c4[nH]c5cc(OC)ccc5c4CCN3C[C@H]2C[C@@H](OC(=O)c2cc(OC)c(OC)c(OC)c2)[C@@H]1OC`
[A] 0.0

[Q] Hi, do you know how `CCOC(=O)/C(C#N)=C/Nc1ccc2c(c1)OCO2` came out in this test?
[A] 0.0

[Q] # fetch the recorded call for `COc1ccccc1N1CCN(C(=O)c2cccs2)CC1` here
[A] 0.0

[Q] Assay result, entry `N#Cc1c(Cl)cccc1N1CCCC1` — outcome?
[A] 1.0

[Q] Which outcome was entered for the molecule CC(=O)OCC(=O)[C@@]1(O)CCC2C3C[C@H](C)C4=CC(=O)C=CC4(C)C3[C@@H](O)CC21C (stereo not given in full) in this test?
[A] 0.0

[Q] Given C[C@@H]1CC[C@@]23CCC4(C)[C@@](C=CC5[C@@]6(C)CC[C@H](O)C(C)(C)C6CC[C@]54C)(OC2=O)C3[C@H]1C (stereo not given in full) , state the outcome it received in this test.
[A] 0.0

[Q] Can you look up the reported call for CC(C)(C)NCC(O)COc1cccc2c1C[C@H](O)[C@H](O)C2 (stereo not given in full) for me?
[A] 0.0

[Q] Which outcome did this test record for the molecule `CNC(=S)N/N=C\c1cc(Br)cc(Br)c1O` ?
[A] 1.0

[Q] Could you please tell me the result logged for `CC(=O)c1ccccc1OC(=O)c1c(-c2c(Cl)cccc2Cl)noc1C` in this assay?
[A] 0.0

[Q] How was O=C(O)C1CC(=O)N(Cc2ccccc2Cl)C1 (stereo not given) classified in this test?
[A] 0.0

[Q] Given `Cc1ccc(C(C)C)c(O)c1C(=O)O` , state the outcome it received in this test.
[A] 0.0

[Q] Test call for this molecule, please: `COC(=O)Cc1cc(OC)c(OC)cc1[N+](=O)[O-]`
[A] 0.0

[Q] Field: outcome | Entry: `Clc1ccc2ocnc2c1`
[A] 0.0

[Q] Hello, I am checking results. What call was entered for CC(=O)O[C@@H]1CC2C(C)(CC[C@H](O)C2(C)C)C2CC[C@]3(C)C(=CC(=O)O[C@H]3c3ccoc3)C21C (stereo not given in full) ?
[A] 0.0

[Q] Outcome? `COc1cc([N+](=O)[O-])c(OC)cc1SCC(=O)NNC(=O)c1cc(OC)c(OC)c(OC)c1`
[A] 0.0

[Q] Hello, I am checking results. What call was entered for `NNC(=O)c1cccnc1Oc1ccccc1` ?
[A] 0.0

[Q] Called result for COC(=O)C(N)CS (stereo not given)
[A] 0.0

[Q] Name the outcome recorded for `NC(=S)CS(=O)(=O)c1ccc(C(F)(F)F)cc1` in the assay.
[A] 0.0

[Q] Which outcome was assigned to `O=c1c(O)cc([C@H]2Oc3cc(O)cc(O)c3C[C@H]2O)cc2c([C@H]3Oc4cc(O)cc(O)c4C[C@H]3O)cc(O)c(O)c12` in this test?
[A] 0.0

[Q] What is the recorded call for this molecule in the test? `CC(=O)CS(=O)(=O)c1ccc(Cl)cc1`
[A] 0.0

[Q] Entry `Nc1ccc(S(=O)(=O)Nc2ncccn2)cc1` : call = ?
[A] 0.0

[Q] Call for entry `CC1(C)[C@@H]2CC[C@@]1(C)C(=O)C2` :
[A] 0.0

[Q] State the result this test recorded for `COc1ccccc1N1CCN(C(=O)Nc2cc(Cl)cc(Cl)c2)CC1` .
[A] 0.0

[Q] Hey, what did the test say about NC[C@H]1O[C@H](OC2[C@@H](N)C[C@@H](N)[C@H](O[C@H]3O[C@H](CO)[C@@H](O)[C@H](N)[C@H]3O)[C@H]2O)[C@H](O)[C@@H](O)[C@@H]1O (stereo not given in full) ?
[A] 0.0

[Q] Each molecule tested received a call. Report the one for `O=C(Nc1ccc(Cl)cc1)N1CCN(c2ncccc2C(F)(F)F)CC1` .
[A] 0.0

[Q] Outcome? C[C@H]1O[C@@H](O[C@H]2[C@@H](O)C[C@H](O[C@H]3[C@@H](O)C[C@H](O[C@H]4CC[C@]5(C)C6CC[C@]7(C)[C@@H](C8=CC(=O)OC8)CC[C@]7(O)C6CC[C@@H]5C4)O[C@@H]3C)O[C@@H]2C)C[C@H](O)[C@@H]1O (stereo not given in full)
[A] 0.0

* * *

EXPERIMENT: chemical genetic growth profiling, strain panel (AID 1159580);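 further: tested at 20 µM; growth read once vehicle control cultures reached saturation at 30 °C; 1 = growth at the plate median or of vehicle wells; lower values mean less growth of the strain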
REPORTED_CONDITIONS: S. cerevisiae deletion strains, growth OD, locus YGR078C, strain PAC10, active compounds read low
Screen size: about 5,500 compounds; about 2,000 (36%) were called active. Another 18% or so got no clear call; they are omitted. The list shows a part of the results.
Provide the reported normalized growth of each item.
Would you mind answering with just the numeric figure?

[Q] State the recorded normalized growth for this entry: `CC(=O)c1ccccc1OC(=O)c1c(-c2c(Cl)cccc2Cl)noc1C`
[A] 1.01

[Q] For `O=C(NC1CCCCC1)N1CCN(c2ncccc2C(F)(F)F)CC1` , what is its reported normalized growth?
[A] 1

[Q] What measured normalized growth goes with `C#CCOC(=O)C1=CCCN(C)C1` ?
[A] 1.01

[Q] What value of normalized growth has been recorded for this entry: `O=C1c2ccccc2C(=O)N1CN1CCC(O)(c2ccc(Cl)cc2)CC1`
[A] 0.981

[Q] // query normalized growth value for entry `CC(C)Nc1nc(Cl)nc(NC(C)C)n1`
[A] 0.997

[Q] Which normalized growth is reported for this compound? COC1CC(O[C@H]2CC[C@]3(C=O)C4CC[C@]5(C)C(C6=CC(=O)OC6)CC[C@]5(O)C4CC[C@]3(O)C2)OC(C)C1O (some centres undefined)
[A] 1.02

[Q] // normalized growth lookup, key: `C[N+]1(C)C[C@H](O)[C@H](C(=O)[O-])C1`
[A] 1.01

[Q] Consider the compound COC(=O)C[C@H]1C(C)(C)[C@@H](O)[C@@H]2CC3=C4CC(O)O[C@@H](c5ccoc5)[C@]4(C)CCC3[C@@]1(C)C2=O (some centres undefined) and give its measured normalized growth.
[A] 0.985

[Q] normalized growth for `Cc1c(C(N)=O)cc([N+](=O)[O-])cc1[N+](=O)[O-]` ?
[A] 1

[Q] Request the reported normalized growth associated with CC1(C)O[C@@H]2CC3C4C[C@H](F)C5=CC(=O)CC[C@]5(C)C4[C@@H](O)C[C@]3(C)[C@]2(C(=O)CO)O1 (some centres undefined)
[A] 1.02

[Q] Request the reported normalized growth associated with COP(N)(=O)SC (centres undefined)
[A] 0.997

[Q] Would you mind telling me what normalized growth value was observed for `CC(C)(C)OC(=O)NCc1n[nH]c(=S)n1-c1ccccc1` ?
[A] 1.01

[Q] I am curious: what normalized growth value has been reported for `C/C=C(\C)C(=O)O[C@@H]1c2c(ccc3ccc(=O)oc23)OC(C)(C)[C@@H]1OC(C)=O` ?
[A] 1

[Q] GET /values?readout=normalized growth&item= CC1(C)Oc2ccc3ccc(=O)oc3c2CC1O (centres undefined)
[A] 0.999
